Source: PubChem BioAssay AID1159580

# normalized growth per record follows
experiment-description: chemical genetic growth profiling, strain panel (AID 1159580);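 further: tested at 20 µM; growth read once vehicle control cultures reached saturation at 30 °C; 1 = growth at the plate median or of vehicle wells; lower values mean less growth of the strain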
measurement-setup: S. cerevisiae deletion strains, growth OD, locus YDL214C, strain PRR2, stronger effect = lower value
The whole screen tested about 5,500 compounds, of which about 2,000 (36%) were called active. Inconclusive results (about 18%) are left out. Some of the results follow.
Answer with a bare number; do not write a unit.

{"molecule": "O=S(=O)(Nc1cc(C(F)(F)F)cc(C(F)(F)F)c1)c1ccc(Cl)s1", "normalized growth": 0.818}
{"molecule": "NNC(=O)c1oc2nc(-c3ccccc3)cc(-c3ccccc3)c2c1N", "normalized growth": 0.921}
{"molecule": "CC(=O)c1ccc(Sc2ccccc2)c([N+](=O)[O-])c1", "normalized growth": 0.792}
{"molecule": "COC(=O)c1sccc1S(=O)(=O)Nc1cc(C(F)(F)F)cc(C(F)(F)F)c1", "normalized growth": 0.962}

Prompt line: State its normalized growth for this molecule: Cc1csc2ncnc(N3CCN(C(=S)Nc4ccc(C(F)(F)F)cc4)CC3)c12
Response line: 0.945

Prompt line: Return reported normalized growth. Input molecule: CC1SC(c2cccnc2)N(c2ccc(Cl)cc2)C1=O (stereo unspecified)
Response line: 0.6
